Assay: plasmodial surface anion channel blockers, osmotic lysis – cell-based, P. falciparum Indochina, OD700, 2 h, primary screen (AID 1155);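 further: lysis reports solute entry through the parasite surface anion channel PSAC; channel blockers reduce lysis of infected cells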
Conditions: P. falciparum Indochina infected erythrocytes, called active from +8 up or from −8 down
The source made the active and inactive calls.
One label from this list, please: 1 = active, -1 = inactive

What call does the record list for Cc1ccc(N2C(=O)c3ccccc3[C@](C)(C(=O)NCCN3CCOCC3)[C@@H]2c2ccc(CO)cc2)nc1 ?
-1

Look up the recorded call for CC(C)C(CO)N1C(=O)[C@@H]2[C@H]3C(=O)OCC=C[C@H]3OC23C=CCN(c2ccc4ccccc4c2)C(=O)[C@@H]13 (some centres not stated) in this test.
-1

What did the test return for Cc1ccc(S[C@]2(C(=O)NCC(F)(F)F)CC(=O)N(C3Cc4ccccc4C3)[C@@H]2c2ccc(CO)cc2I)cc1 ?
-1

Fill in: this test's call for [N-]=[N+]=Nc1ccccc1C[C@]1(C(=O)N2CCCCC2)N=C(c2ccc(OCCCO)cc2)O[C@H]1c1ccccc1N=[N+]=[N-] is ___
1

Which outcome was assigned to [N-]=[N+]=NCc1ccccc1C[C@]1(C(=O)NCC(O)CO)COC(c2ccc(OCCCO)cc2)=N1 (some centres not stated) in this test?
1

What did this assay record as the result for COc1ccc(C(O)C2C=CC3C(=O)N(c4ccccc4)C(=O)C3N2Nc2ccccc2)c2ccccc12 (configuration not stated) ?
-1

Recorded test outcome, item COc1ccc(C#Cc2ccc3c(c2)[C@]2(C(=O)N3)[C@H](c3ccc(OCCO)cc3)N3[C@H](c4ccccc4)[C@H](c4ccccc4)OC(=O)[C@H]3[C@@H]2C(=O)Nc2nc3ccccc3s2)cc1
-1

###

Assay: plasmodial surface anion channel blockers, osmotic lysis – cell-based, P. falciparum Indochina, OD700, 1 h, primary screen (AID 1154)
Settings: P. falciparum Indochina infected RBC osmotic lysis, called active from +8 up or from −8 down
Activity calls are given as the source filed them.
Your response should consist of one outcome taken from active, inactive

Assay outcome for COC(=O)[C@@]1(Cc2ccc(OC)cc2)[C@H]2c3cc(C(=O)N4CCCC4)n(C[C@H](O)CO)c3C[C@H]2CN1C(=O)c1ccccc1 : what was it?
inactive

Status in this test for CC(C)C(CO)N1C(=O)[C@@H]2[C@H]3C(=O)OCC=C[C@H]3OC23C=CCN(c2ccc4ccccc4c2)C(=O)[C@@H]13 (stereo not given in full) ?
inactive

Returns: the outcome recorded for COC(=O)[C@@]1(Cc2ccc(F)cc2)[C@H]2c3cc(C(=O)N4CCCC4)n(Cc4ccc(Cl)c(C(F)(F)F)c4)c3C[C@H]2CN1C(=O)c1ccccc1 in this assay.
inactive

What call does the record list for COC(=O)[C@@]1(Cc2ccc(OC)cc2)[C@H]2c3cc(C(=O)N(C)C)n(Cc4ccc(OC)c(OC)c4)c3C[C@H]2CN1C(=O)c1ccccc1 ?
inactive

Please state the recorded outcome for this molecule: CCCC[C@@H]1C[C@H]1[C@@H](NC(=O)c1ccccc1)c1ccccc1
inactive

Which result was noted for this molecule in the test: CC(=O)NCCCC[C@@H]1NC(=O)[C@@H]2C[C@H](C(=O)NCc3ccc(F)cc3)[C@H](c3ccc(O)cc3)N2C1=O
inactive

Dear all, I need the recorded test outcome for CN1C(=O)C2C(C1=O)C1C=C(c3ccc(CO)cc3)C2C(C2CC2)N1Cc1sc2ccccc2c1Cl (stereo not given) , thank you.
active

Outcome? C[N+](C)(C)CCCC[C@@H]1NC(=O)[C@@H]2C[C@H](C(=O)NCCCCCCNC(=O)CS)[C@H](c3cccc(OCCO)c3)N2C1=O
inactive

Can you look up the reported call for CCCC[C@H]1OB(O)C[C@H]2C1=C(COc1ccccc1)C[C@H]1C(=O)N(Cc3ccccc3)C(=O)[C@H]12 for me?
inactive

Recorded test outcome, item COC(=O)[C@@]1(Cc2ccc(OC)cc2)[C@H]2c3cc(C(=O)N(C)C)n(CCSCCO)c3C[C@H]2CN1C(=O)c1ccccc1
inactive

Lab log entry: CCN(CC)c1ccc(N2CC=CC34O[C@@H]5/C=C\CCCOC(=O)C5[C@H]3C(=O)N(CCCO)[C@@H]4C2=O)cc1 (stereo not given in full) — outcome as called in the assay?
inactive

Per the records of this test, what outcome belongs to C#C[C@H]1Oc2ccccc2S(=O)(=O)N2CCC[C@@H]12 ?
inactive

Dear colleague, could you share the recorded outcome for CC1CC/C=C\[C@H]2OC34C=CCN(c5ccc6ccccc6c5)C(=O)[C@H]3N(CCCCCO)C(=O)[C@@H]4C2C(=O)O1 (stereo not given in full) when you have a moment?
inactive

Dear colleague, could you share the recorded outcome for C=CCN1C(=O)[C@@]2(O[C@@H](CCO)[C@H]([Si](C)(C)c3ccc(OC)cc3)[C@H]2C)c2cc(N3C(=O)COc4ccccc43)ccc21 when you have a moment?
active

Which outcome did this test record for the molecule OCCCc1cc[n+](Cc2cccc(OC(F)(F)F)c2)cc1 ?
inactive

###

Assay: hepatitis C replication reporter changes, two-sided – Huh7 cells, luciferase reporter, HCV replication inhibitor project, primary screen (AID 1109);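 further: huh7 hepatoma cells harbouring a luciferase neomycin HCV replicon reporter; luciferase luminescence as measure of HCV replicon replication; test concentration not given here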
Conditions: Huh7 HCV replicon luciferase reporter, 48 h; higher = more signal
If the reported z-score equals or exceeds -0.6, assign Satisfied. If not, assign Not satisfied.

Form field: z-score at least -0.6? Entry: [N-]=[N+]=NCc1ccccc1C[C@]1(C(=O)NCCN2CCOCC2)N=C(c2ccc(OCCCO)cc2)O[C@H]1c1ccccc1CN=[N+]=[N-]
Not satisfied

Form field: z-score at least -0.6? Entry: COCCn1c(C(=O)N(C)C)cc2c1C[C@H]1CN(C(=O)c3ccccc3)[C@@](Cc3ccc(F)cc3)(C(=O)OC)[C@@H]21
Satisfied

Is z-score for COC(=O)[C@@]1(Cc2ccccc2)[C@H]2c3cc(C(=O)N(C)C)n(Cc4ccccc4)c3C[C@H]2CN1C(=O)c1ccccc1 at or above -0.6?
Not satisfied

Say whether C=CCNC(=O)[C@H]1[C@@H]2C(=O)O[C@@H](c3ccccc3)[C@@H](c3ccccc3)N2[C@@H](c2ccc(OCCO)cc2)[C@]12C(=O)N(C(=O)OCCOC)c1ccc(C#CC3(O)CCCCCC3)cc12 shows z-score of -0.6 or more.
Not satisfied

Is z-score for NC(=O)[C@@]1(CCS(=O)(=O)c2ccccc2)N=C(c2ccc(OCCCO)cc2)O[C@H]1c1ccccc1 at or above -0.6?
Not satisfied

Is z-score at least -0.6? Consider CC(C)(C)OC(=O)CC[C@@]1(C(=O)N2CCOCC2)N=C(c2ccc(OCCCO)cc2)O[C@@H]1c1ccccc1N=[N+]=[N-]
Satisfied

###

System: wheat germ agglutinin (Triticum aestivum), Alexa647-labelled
Test: Alexa647-WGA lectin binding to printed small molecules – biochemical, small-molecule microarray, 635/667 nm fluorescence, artefact control for SMM control-protein annotation, profiling panel (AID 1140);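 further: score merges 667 nm feature emission with signal to noise over triplicate slides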
Details: WGA-A647 binding, 635 nm fluorescence, higher = more signal
Classification by composite z-score | ranges: bin 1 (below 0.1), bin 2 (0.1 to below 0.8), bin 3 (0.8 or more)

Which class holds CN(C)CCCC[C@@H]1NC(=O)[C@@H]2C[C@H](C(=O)NCCCCCN)[C@H](c3ccc(O)cc3)N2C1=O ?
bin 3

Just checking, what class would you give Oc1ccc2cc[n+](Cc3cccc(OC(F)(F)F)c3)cc2c1 here?
bin 1

Assign a bin to [N-]=[N+]=NCc1ccccc1[C@@H]1OC(c2ccc(OCCCO)cc2)=N[C@]1(Cc1ccccc1N=[N+]=[N-])C(N)=O
bin 3

Kindly state the category for this compound: COCCCNC(=O)[C@@]1(C)c2ccccc2C(=O)N(Cc2ccccc2)[C@H]1c1ccc(CO)cc1
bin 1

Assign a category based on measured composite z-score for O=C1c2ccccc2[C@](Cc2ccccc2I)(C(=O)O)[C@H](c2ccc(CO)cc2)N1Cc1ccccc1C(F)(F)F and give only the class name.
bin 3

Exam item: assign COC(=O)C(CC#Cc1ccc2c(c1)[C@]1(C(=O)N2)[C@H](C(=O)N2CCCCCCC2)[C@H]2C(=O)O[C@H](c3ccccc3)[C@H](c3ccccc3)N2[C@@H]1c1ccccc1OCCO)C(=O)OC to the correct category.
bin 3

Hi, small favor: classify Cc1ccc(S[C@]2(C(=O)NCCCN(C)C)CC(=O)N(C(C)C)[C@@H]2c2ccc(CO)cc2I)cc1 by its composite z-score when you get a moment.
bin 1

For C=CCC(OC(C)=O)[C@@H]1[C@@H](N(Cc2cc3ccccc3o2)C(=O)c2cccc3ccccc23)c2cc(OCCCO)ccc2N1C(=O)Cc1ccc(OC)cc1 (stereo partly specified) , which composite z-score bin applies?
bin 2

Sort COC(=O)[C@@]1(Cc2ccc(F)cc2)[C@H]2c3cc(C(=O)N(C)C)n(CCCNc4ccc(C(F)(F)F)cc4Cl)c3C[C@H]2CN1C(=O)c1ccccc1 into one of the categories.
bin 3

Which class is correct for the following compound? C=C[C@H](OC)[C@@H](OC(=O)Nc1ccc(SC)cc1)c1ccc(OCCO)cc1
bin 3

Band assignment needed for C=CCC(OC(C)=O)[C@@H]1[C@@H](N(Cc2cc3ccccc3o2)C(=O)c2cccc3ccccc23)c2cc(OCCCO)ccc2N1C(=O)Cc1ccc2ccccc2c1 (stereo partly specified) please.
bin 1

Dear colleague, I would appreciate it if you could identify the bin for C=CCN1C(=O)[C@]2(Cc3ccccc31)N=C(c1ccc(OCCCO)cc1)O[C@@H]2c1ccccc1 and reply at your convenience.
bin 2

In plain terms, what class is O=C(NCc1ccccc1)[C@@H]1c2ccccc2C(=O)N(Cc2cc(F)cc(C(F)(F)F)c2)[C@H]1c1ccc(CO)cc1 ?
bin 2

Please let me know in which category the item C=C(C(=O)CC[C@@H](OC(C)=O)c1ccc(OCCO)cc1)C(C)C belongs.
bin 1

Into which bin does this compound go? C=CC[C@]1(C(=O)NCCN2CCOCC2)N=C(c2ccc(OCCCO)cc2)O[C@H]1c1ccccc1N=[N+]=[N-]
bin 2

Categorize the following entry: C=CCOC(=O)[C@H]1[C@@H]2C(=O)O[C@@H](c3ccccc3)[C@@H](c3ccccc3)N2[C@@H](c2ccc(OCCOC(=O)[C@H]3C[C@H]4C(=O)N[C@@H](CCCC[N+](C)(C)C)C(=O)N4[C@H]3c3ccc(O)cc3)cc2)[C@]12C(=O)Nc1ccccc12
bin 2

Please report the category associated with O=C1C2C=CC(C(O)CCc3ccccc3)N(Nc3ccccc3)C2C(=O)N1c1ccccc1 (stereo unspecified) , nothing else.
bin 3

Input CC1CC/C=C\[C@H]2OC34C=CCN(c5ccc6ccccc6c5)C(=O)[C@H]3N(CCCCCO)C(=O)[C@@H]4C2C(=O)O1 (stereo partly specified) ; output its category
bin 1

Which bin should I file CC1(C)C(=O)C(c2ccccc2)=C2CN3C(=O)N(CCc4ccccc4)C(=O)C3(Cc3ccccc3)C=C21 (stereo unspecified) under?
bin 3

Note: place this compound into its band. Item: O=C1C2C=CC(C(O)c3ccc(B(O)O)cc3)N(Nc3ccc([N+](=O)[O-])cc3)C2C(=O)N1c1ccccc1 (stereo unspecified)
bin 3

Please indicate the class for CC(C)C(CO)N1C(=O)[C@@H]2[C@H]3C(=O)OCC=C[C@H]3OC23C=CCN(c2ccc4ccccc4c2)C(=O)[C@@H]13 (stereo partly specified) based on its composite z-score.
bin 1

Class? Entry: COC(=O)[C@@]1(Cc2ccc(F)cc2)[C@H]2c3cc(C(=O)N(C)C)n(Cc4ccccn4)c3C[C@H]2CN1C(=O)c1ccccc1
bin 2

Each compound maps to one class by composite z-score. Which class for CC(C)(C)OC(=O)CC[C@@]1(C(=O)NCC(O)CO)N=C(c2ccc(OCCCO)cc2)O[C@@H]1c1ccccc1 (stereo partly specified) ?
bin 2

Hi there! Could you help me figure out the category for Cc1ccc(C(C)CC(O)C2C=CC3C(=O)NC(=O)C3N2Nc2ccccn2)o1 (stereo unspecified) please?
bin 1

// return the class label for CC(=O)N1Cc2ccccc2C[C@@]2(N=C(c3ccc(OCCCO)cc3)O[C@H]2c2ccccc2)C1=O
bin 3

Just checking, what class would you give O=C(NCC(F)(F)F)[C@@H]1c2ccccc2C(=O)N(Cc2ccccc2)[C@H]1c1ccc(CO)cc1 here?
bin 1

Any idea which band O=S(=O)(NCCCO)c1ccc(Br)cc1 is in?
bin 2

Please let me know in which category the item C=C(CCCC)C(=O)CC[C@@H](OC(=O)c1ccccc1-c1ccccc1C(=O)O)c1ccc(CO)o1 belongs.
bin 2

Dear colleague, I would appreciate it if you could identify the bin for CC(C)N1C(=O)c2ccccc2[C@](C)(C(=O)NCCCN(C)C)[C@@H]1c1ccc(CO)cc1 and reply at your convenience.
bin 2

Which class does C=C[C@H](C)[C@H](O)c1ccc(OCCO)cc1 fall in?
bin 1
